# Tested on: ULK1;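 note: KINOMEscan kinase panel screen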
# RECORDED_CONDITIONS: concentration: 1 μM,replicates: in singlicate; n = 1
Entries and their %Inh values follow.
ENDPOINT_NAME: %Inh (%)

MOLECULE	ASSAY_SYSTEM	TEST_VALUE
NC(=O)Nc1sc(-c2ccc(F)cc2)cc1C(N)=O	ULK1	32
FC(F)(F)c1cc(Br)cc(Nc2nccc(-c3cnn4ncccc34)n2)c1	ULK1	21
CC(=O)c1c(-c2ccncc2)[nH]c(-c2ccncc2)c1C	ULK1	3
COc1cccc(CNC(=O)NC2CCN(c3ccnc(Nc4cc(OC)c(OC)c(OC)c4)n3)C2)c1 (stereo not shown)	ULK1	0
O=c1[nH]cc(-c2ccc(O)cc2)c2sc(-c3ccncc3)cc12	ULK1	8
Cn1ccc2ncnc(Oc3ccc(NC(=O)Nc4ccnc(C(F)(F)F)c4)c(Cl)c3)c21	ULK1	0
CCn1c(-c2nonc2N)nc2cncc(Br)c21	ULK1	14
CN1CCN(CCCNc2nccc(-c3c(-c4ccc(F)cc4)nn4cc(C(N)=O)ccc34)n2)CC1	ULK1	8
Cc1nnc(-c2ccc3occ(-c4ccc(S(C)=O)cc4)c3n2)o1 (stereo not shown)	ULK1	0
CN(c1cccc(CNc2nc(Nc3ccc4c(c3)CC(=O)N4)ncc2C(F)(F)F)c1)S(C)(=O)=O	ULK1	72
CS(=O)(=O)Nc1ccc(-c2ccnc3[nH]ccc23)cc1	ULK1	64
Cc1ccc(Nc2ccnc(Nc3ccc4c(c3)CS(=O)(=O)C4)n2)cc1O.Cl	ULK1	55
COc1cc2c(Nc3ccc(NC(=O)c4ccccc4)cc3)ncnc2cc1OCCCN1CCOCC1	ULK1	7
O=C1NCCc2[nH]c(-c3ccncc3)cc21	ULK1	25
CN(c1ccc2c(c1)nc(NCc1ccc(F)cc1)n2C)c1ccnc(Nc2ccc(CS(C)(=O)=O)cc2)n1.Cl	ULK1	28
Cl.Cl.NC[C@H](CC1CCCCC1)NC(=O)c1ccc(-c2ccnc3[nH]ccc23)s1	ULK1	31
CSc1nccc(-c2c(-c3ccc(F)cc3)ncn2CCCN2CCOCC2)n1.Cl	ULK1	12
CCN1CCN(CCCC(=O)Nc2n[nH]c3nc(-c4ccc(O)cc4)c(Br)cc23)CC1	ULK1	0
CC(C)S(=O)(=O)N1CCN(Cc2ccc3c(c2)nc(NC(=O)c2ccsc2)n3C[C@H](O)c2ccccc2)CC1	ULK1	82
O=C(Nc1ccc(Oc2ccc3nc(NC(=O)C4CC4)cn3n2)c(F)c1)c1cccn(-c2ccccc2)c1=O	ULK1	0
COc1ccc(Nc2nccc(N3CCC(NC(=O)c4cccc(C#N)c4)C3)n2)cc1 (stereo not shown)	ULK1	0
COc1cccc(OC)c1C(=O)Nc1cccc(-c2nn3ccccc3c2-c2ccnc(Nc3cccc(F)c3)n2)c1	ULK1	0
Cc1ccc(CC(=O)N2CCc3cc(-c4cn(C)c5ncnc(N)c45)ccc32)cc1	ULK1	11
O=C(NOCC1CC1)c1cc(Br)c(F)c(F)c1Nc1ccc(I)cc1Cl	ULK1	0
CNC(=O)c1ccccc1Nc1nc(Nc2cccc(CS(C)(=O)=O)c2)ncc1C.O=CO	ULK1	98.6
C[C@@H]1CNc2c(sc3ccc4nc(-c5ccncc5)ccc4c23)C(=O)N1	ULK1	26
Cc1ccc2c(-c3ccnc(Nc4ccc(C(F)(F)F)cc4)n3)cnn2n1	ULK1	0
COC(=O)Nc1nc2cc(Oc3ccc(NC(=O)Nc4cc(C(F)(F)F)ccc4Cl)cc3)ccc2[nH]1.Cl	ULK1	17
Cc1cccc2c(-c3ccncc3)c(-c3ccc(F)cc3)nn12.Cl	ULK1	0
CCCC(=O)Nc1n[nH]c2ncccc12	ULK1	0
COc1cccc(C2=C(Nc3cccc(Cl)c3)C(=O)NC2=O)c1	ULK1	42
COc1cc(Nc2nccc(N3CCC(NC(=O)c4cccc(C#N)c4)C3)n2)cc(OC)c1OC (stereo not shown)	ULK1	12
Cn1cc(-c2cccc3c(N)c(C(N)=O)nnc23)cn1	ULK1	23
Cc1n[nH]c2cc(Nc3ccnc(Nc4cccc(CN5CCOCC5)c4)n3)ccc12	ULK1	1
